System: HCC-2998 colon
Test: NCI tumour cell line growth inhibition, 48 h
Some compounds, each annotated with its measured TGI.
readout name: TGI

- C(#Cc1ccccc1)SC1=C(c2ccccc2)S/C(=C(\SC#Cc2ccccc2)c2ccccc2)S1: > 100 µM
- O=C1C(c2c(O)[nH]c3ccc(S(=O)(=O)NCCO)cc23)=Nc2ccccc21: > 100 µM
- CN1CCC2(CC1)C(=NC1CCCCC1)NC(=O)N2c1ccccc1: > 100 µM

* * *

Test system: UACC-257 melanoma
Test: NCI tumour cell line growth inhibition, 48 h
Below, each of the molecules is paired with its reported TGI value.
readout name: TGI (µM)

• COCCN1C(=O)C2c3[nH]c4ccccc4c3C3CCC(C(C)(C)C)CC3C2C1=O (stereo not drawn) = 31.8
• O=C(N/N=C\c1ccc([N+](=O)[O-])s1)c1ccncc1 = 31.8

* * *

Property: TGI; scope: individual molecules
Test system: M14 melanoma
Assay: NCI tumour cell line growth inhibition, 48 h
readout name: TGI

* COc1ccc(C2=NC(c3ccc(Cl)cc3)C(c3ccc(Cl)cc3)N2C(=O)N2CCNC(=O)C2)c(OC(C)C)c1 (configuration not stated) | 3.31 µM
* CC(=O)OCC1OC(n2c(-c3ccccc3)c(N=Nc3ccc(C)cc3)c(C)c(C#N)c2=S)C(OC(C)=O)C(OC(C)=O)C1OC(C)=O (configuration not stated) | 16.8 µM
* O=c1[nH]c2ccc(CC(=S)N3CCCCC3)cc2s1 | > 100 µM
* NN/C(=N\S(=O)(=O)c1ccc(S(=O)(=O)c2ccccc2)s1)Nc1ccc(Cl)cc1 | 40.1 µM
* COC(=O)C(=O)C(C(=O)C(=O)Nc1cc(Cl)c(Cl)cc1Cl)c1nc2ccc([N+](=O)[O-])cc2[nH]c1=O (configuration not stated) | > 100 µM
* O=C(c1ccc2ccccc2c1)c1c(C(F)(F)F)n([O-])c2ccc(F)cc2[n+]1=O | 3.11 µM
* CNC(c1ccncc1)C(NC)c1ccncc1 (configuration not stated) | > 100 µM
* CC(C(N)=O)N(C)C(=O)c1cnc2ccccc2c1 (configuration not stated) | > 100 µM
* C=C1C(=O)OC2C3OC(C)(CCC(O)C3COC(C)=O)CC(OC(=O)/C(=C/C)COC(C)=O)C12 (configuration not stated) | 1.01 µM
* CC(=O)c1sc2[n+](c1C)C(=O)/C(=C\c1ccccc1Cl)S2 | 40 µM
* COc1cc(-c2cc(=O)c3c(O)c(OC)c(OC)c(OC)c3o2)cc(OC)c1OC | > 100 µM
* O=C(Cc1ccccc1)NN1C(=O)/C(=C\c2ccccc2O)SC1=Nc1ccccc1 | > 100 µM
* S=c1nc[nH]c2c1ncn2C1CCCO1 (configuration not stated) | > 100 µM
* O=c1[nH]c2ccc([N+](=O)[O-])cc2nc1/C=C(\O)c1ccccc1 | > 100 µM
* Cc1cc(=O)oc2c(CNC(CC(C)C)C(=O)O)c(O)ccc12 (configuration not stated) | > 100 µM
* CC(=O)OC(=O)O/C=C\CCl | > 100 µM
* CC/C(=C\c1ccc(OC)cc1)c1ccc(OC)cc1 | > 100 µM

* * *

Test system: NCI-H522 lung
Assay: NCI tumour cell line growth inhibition, 48 h; in the data active means GI50 below about 0.43 µM; inactive means the rest
Classes used: class 1 for active, class 0 for inactive

* C=CC(C)(O)CC/C=C(\CO)C(=O)OC1C(C)OC(O[C@](C)(C=C)CC/C=C(\CO)C(=O)O[C@H]2C[C@@]3(C(=O)OC4OC(CO)C(O)C(O)C4OC4OC(C)C(OC5OC(CO)C(O)C5O)C(OC5OC(CO)C(O)C(O)C5O)C4O)C(CC2(C)C)C2=CCC4[C@@]5(C)CC[C@H](OC6OC(COC7OC(C)C(O)C(O)C7OC7OCC(O)C(O)C7O)C(O)C(O)C6NC(C)=O)C(C)(C)C5CC[C@@]4(C)[C@]2(C)C[C@H]3O)C(O)C1O (some centres undefined) | class 1
* COc1ccc(-c2n/c(=C\c3c(O)[nH]c4ccccc34)cc3c2=Nc2ccccc2-3)cc1 | class 0
* CN(C(=O)CNC(=O)/C=C/c1cccc(Cl)c1)C1CCS(=O)(=O)CC1 | class 0
* Cc1c(Cl)c(C)c(Cc2c(C)c(Cl)c(C)c(Cl)c2O)c(O)c1Cl | class 0
